compounds and their reported AD38 Viability Normalized Result (CPAM/DMSO %) at 10 μM
tested on: AD38 cells; test: AD38 viability normalized to DMSO control; type: cell-based; conditions: 10 μM compound, vs DMSO control; Table 6
readoutLabel: AD38 Viability Normalized Result (CPAM/DMSO %) at 10 μM

[
  {
    "compound": "CC(C)c1cc(Oc2ccc(F)cc2)nc(N2CCN(S(=O)(=O)c3ccc(C(F)(F)F)cc3)CC2)n1 [Compound 1296]",
    "dataValue": 103
  },
  {
    "compound": "Cc1ccc(Nc2cc(C)nc(N3CCN(S(=O)(=O)c4ccccc4C)CC3)n2)cc1 [Compound 1153]",
    "dataValue": 109
  },
  {
    "compound": "COc1ccc(S(=O)(=O)N2CCN(c3nc(Nc4ccc(C)cc4)cc(N4CCCCC4=O)n3)CC2)cc1 [Compound 1213]",
    "dataValue": 94
  },
  {
    "compound": "COc1ccc(S(=O)(=O)N2CCN(c3nc(Nc4ccc(C)cc4)cc(-n4cncn4)n3)CC2)cc1 [Compound 1230]",
    "dataValue": 95
  },
  {
    "compound": "COc1ccc(S(=O)(=O)N2CCN(c3nc(Nc4ccc(C)cc4)cc(NC(C)C)n3)CC2)cc1 [Compound 1231]",
    "dataValue": 94
  },
  {
    "compound": "COc1ccc(S(=O)(=O)N2CCN(c3nc(C)cc(Nc4cncnc4)n3)CC2)cc1 [Compound 1186]",
    "dataValue": 106
  },
  {
    "compound": "O=S(=O)(c1ccccc1)N1CCN(c2nc(Oc3ccc(F)cc3)cc(-n3cnnc3)n2)CC1 [Compound 1311]",
    "dataValue": 86
  },
  {
    "compound": "COc1ccc(S(=O)(=O)N2CCN(c3nc(C)cc(Nc4ncc(C)cn4)n3)CC2)cc1 [Compound 1261]",
    "dataValue": 98
  },
  {
    "compound": "CN(C)c1cc(Oc2ccc(F)cc2)nc(N2CCN(S(=O)(=O)c3ccc(C(F)(F)F)cc3)CC2)n1 [Compound 1298]",
    "dataValue": 97
  },
  {
    "compound": "COc1ccc(S(=O)(=O)N2CCN(c3nc(Nc4ccc(C)cc4)cc(-c4ncc[nH]4)n3)CC2)cc1 [Compound 1274]",
    "dataValue": 92
  },
  {
    "compound": "CC(C)c1cc(Oc2ccc(F)cc2)nc(N2CCN(S(=O)(=O)c3cccc(C(F)(F)F)c3)CC2)n1 [Compound 1287]",
    "dataValue": 98
  },
  {
    "compound": "COc1ccc(S(=O)(=O)N2CCN(c3nc(Nc4ccc(C)cc4)cc(-n4nccn4)n3)CC2)cc1 [Compound 1247]",
    "dataValue": 98
  },
  {
    "compound": "COc1ccc(S(=O)(=O)N2CCN(c3nc(C)cc(Nc4nccs4)n3)CC2)cc1 [Compound 1233]",
    "dataValue": 95
  },
  {
    "compound": "Cc1ccc(Nc2cc(C)nc(N3CCN(S(=O)(=O)c4cccnc4)CC3)n2)cc1 [Compound 1133]",
    "dataValue": 108
  },
  {
    "compound": "CC(C)c1cc(Oc2ccc(F)cc2)nc(N2CCN(S(=O)(=O)c3ccccc3)CC2)n1 [Compound 1301]",
    "dataValue": 102
  }
]
